Details: 303.15 K; 101.3 kPa; Liquid
Recorded mass density, one value per entry.
State the answer as a number, implicitly in kg/m3.

compound="CCOC(=O)CC(=O)OCC [diethyl 1,3-propanedioate]" readout_kind="mass density" numeric_result=1043.23
compound="CCOC(=O)CCl [ethyl chloroethanoate]" readout_kind="mass density" numeric_result=1139.18

Query block: Form field: reported mass density of CCOC(=O)C(Br)C(=O)OCC [diethyl bromomalonate]
Result block: 1399.18

Query block: Form field: reported mass density of ClC(Cl)Cl [trichloromethane]
Result block: 1470.59

Query block: Form field: reported mass density of ClC(Cl)(Cl)Cl [tetrachloromethane]
Result block: 1574.82

====

Details: 303.15 K; 101.3 kPa; Liquid; Linear variable-path acoustic interferometer
Recorded speed of sound, one value per entry.
State the answer as a number, implicitly in m/s.

Solved cases below.
compound=ClC(Cl)(Cl)Cl numeric_result=905
compound=ClC(Cl)Cl numeric_result=967
compound="CCOC(=O)CC(=O)OCC [diethyl 1,3-propanedioate]" numeric_result=1274

Query block: Form field: reported speed of sound of CCOC(=O)CCl [ethyl chloroethanoate]
Result block: 1227

Query block: Form field: reported speed of sound of CCOC(=O)C(Br)C(=O)OCC [diethyl bromomalonate]
Result block: 1166
